- ASSAY TARGET: full-length recombinant rat vitamin D receptor (Rattus norvegicus, UniProt P13053)
- Construct: Full-length recombinant rat receptor was expressed in E. coli; His tag (C)
- Sequence (P13053 whole entry): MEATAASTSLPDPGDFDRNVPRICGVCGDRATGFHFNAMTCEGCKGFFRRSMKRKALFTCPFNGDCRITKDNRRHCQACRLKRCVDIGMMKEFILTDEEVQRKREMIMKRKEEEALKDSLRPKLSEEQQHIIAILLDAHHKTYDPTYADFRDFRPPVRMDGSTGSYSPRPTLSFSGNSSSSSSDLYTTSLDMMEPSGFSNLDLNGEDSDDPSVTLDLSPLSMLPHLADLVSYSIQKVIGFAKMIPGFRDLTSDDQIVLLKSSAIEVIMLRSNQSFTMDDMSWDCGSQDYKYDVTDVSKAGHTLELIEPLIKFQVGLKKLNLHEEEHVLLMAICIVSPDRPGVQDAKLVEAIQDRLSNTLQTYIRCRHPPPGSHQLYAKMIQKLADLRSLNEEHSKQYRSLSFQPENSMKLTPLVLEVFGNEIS
- EXPERIMENTAL DETAILS: Vitamin D receptor competitive binding with [3H]-1,25(OH)2D3
- CONDITION LABEL: full-length recombinant rat VDR; FIG. 1; read-out: Ki, competition with [3H]-1,25(OH)2D3 for binding to vitamin D receptor
- Procedure: Full-length recombinant rat receptor was expressed in E. coli BL21 (DE3) Codon Plus RIL cells and purified to homogeneity using two different column chromatography systems. […] Radiolabeled and unlabeled ligands were added to 100 mcl of the diluted protein at a final ethanol concentration of ≦10%, mixed and incubated overnight on ice to reach binding equilibrium. […] Total binding was determined from the tubes containing only radiolabeled ligand.
READOUT: pKi
Answers are plain numbers, as −log10 of the molar value.

Record C=C1[C@H](O)CC(=C/C=C2\CCC[C@]3(C)[C@@H]([C@@H](C)/C=C/C[C@@H](C)O)CC[C@@H]23)C[C@H]1O has full-length recombinant rat vitamin D receptor (Rattus norvegicus, UniProt P13053) pKi equal to 10.00
